Recorded IC50 for compounds tested on Histamine H3 receptor (Homo sapiens, UniProt Q9Y5N1), drawn from a number of studies.

Inquiry: Item O=C(CN1CCOCC1)N1CC(C(=O)N2CCCN(C3CCC3)CC2)C1 with Histamine H3 receptor (Homo sapiens, UniProt Q9Y5N1) - IC50?
Reply text: < 50 nM

More entries:
Inquiry: Item O=C(Cc1ccc(Cl)cc1)N1CC(C(=O)N2CCCN(C3CCC3)CC2)C1 with Histamine H3 receptor (Homo sapiens, UniProt Q9Y5N1) - IC50?
Reply text: < 50 nM

Inquiry: Item O=C(c1ccc(-n2cccn2)cc1)N1CC(C(=O)N2CCCN(C3CCC3)CC2)C1 with Histamine H3 receptor (Homo sapiens, UniProt Q9Y5N1) - IC50?
Reply text: < 50 nM

Inquiry: Item O=C([C@@H]1C[C@H]1c1ccc(Br)cc1)N1CCN(C2CCC2)CC1 with Histamine H3 receptor (Homo sapiens, UniProt Q9Y5N1) - IC50?
Reply text: 262 nM

Inquiry: Item CN(Cc1ccc(C#N)cc1)C(=O)N1CC(C(=O)N2CCCN(C3CCC3)CC2)C1 with Histamine H3 receptor (Homo sapiens, UniProt Q9Y5N1) - IC50?
Reply text: < 50 nM

Inquiry: Item O=C(C1CC12CCN(C1CCOCC1)CC2)N1CCN(c2ccncc2)CC1 (stereo not drawn) with Histamine H3 receptor (Homo sapiens, UniProt Q9Y5N1) - IC50?
Reply text: 139 nM

###

pIC50: −log10 of the molar value.
Recorded pIC50 for molecules tested on Histamine H3 receptor (Homo sapiens, UniProt Q9Y5N1), drawn from a number of studies.
Readout label: pIC50

Would you please look over these solved cases?
Inquiry: Value lookup for pIC50; key = Cc1cncc(C(=O)N2CCC3(CC2)CC(C(=O)N2CCCN(C4CCC4)CC2)C3)c1
Reply text: 8.24

Inquiry: Value lookup for pIC50; key = O=C(C1CC12CCN(C1CCOCC1)CC2)N1CCN(C2CCCCC2)CC1 (stereo not drawn)
Reply text: 7.89

Inquiry: Value lookup for pIC50; key = O=C(c1cccnc1)N1CCC2(CC1)CC(C(=O)N1CCCN(C3CCC3)CC1)C2
Reply text: 8.08

Inquiry: Value lookup for pIC50; key = Cc1ccnc(C)c1C(=O)N1CCC2(CC1)CC(C(=O)N1CCN(C3CCC3)CC1)C2
Reply text: 7.77

Inquiry: Value lookup for pIC50; key = CN(CCN1CCCC1)C(=O)[C@H]1CC[C@@]2(CC1)OC(=O)c1ncccc12
Reply text: 9.14

Inquiry: Value lookup for pIC50; key = O=C(C1CC2(CCN(c3cnccn3)CC2)C1)N1CCN(C2CCC2)CC1
Reply text: 7.29

Inquiry: Value lookup for pIC50; key = Cc1cccnc1C(=O)N1CCC2(CC1)CC(C(=O)N1CCN(C3CCC3)CC1)C2
Reply text: 7.61

Inquiry: Value lookup for pIC50; key = C[C@H]1CN(C(=O)C2CC3(CCN(S(C)(=O)=O)CC3)C2)CCN1C1CCC1
Reply text: 6.43

[1] CC(C)N1CCN(C(=O)C2CC23CCN(C2CCOCC2)CC3)CC1 (single isomer, unassigned)
[2] COc1ccc2c(n1)C(=O)O[C@]21CC[C@H](C(=O)N(C)CCN2CCCC2)CC1
Inquiry: pIC50 comparison. Which is larger, 1 or 2 ? Which one? Tell me its label.
Reply text: 2
(2: 9.04, 1: 7.88)

[P] CN(CCN1CCCC1)C(=O)[C@H]1CC[C@@]2(CC1)OC(=O)c1nc(-c3ccccc3)ccc12
[Q] Cc1cc(C(=O)N2CCC3(CC2)CC(C(=O)N2CCCN(C4CCC4)CC2)C3)ccn1
Inquiry: Between P and Q , which one shows the smaller pIC50 number? Which one? Tell me its label.
Reply text: Q

[a] O=C(C1CC2(CCN(S(=O)(=O)c3cccc(F)c3)CC2)C1)N1CCCN(C2CCC2)CC1
[b] O=C(Nc1ccccc1)N1CCC2(CC1)CC(C(=O)N1CCN(C3CCC3)CC1)C2
[c] CCN1CC2(CCN(c3ccc(OCCCN4CCC[C@H]4C)cc3)CC2)OC1=O
[d] O=C(C1CC2(CCN(c3ccccn3)CC2)C1)N1CCN(C2CCC2)CC1
[e] Cc1cc(N2CCN(C(=O)C3CC34CCN(C3CCOCC3)CC4)CC2)ccn1 (stereo not drawn)
Inquiry: Ranking field: pIC50; order: falling. // ordering of labels required in reply
Reply text: c, a, d, b, e
(c: 9.39, a: 8.00, d: 7.57, b: 7.32, e: 6.60)

[A] O=C(C1CC12CCN(C1CCOCC1)CC2)N1CCN(C2CCCC2)CC1 (stereo not drawn)
[B] Cc1cnccc1N1CCN(C(=O)C2CC23CCN(C2CCOCC2)CC3)CC1 (stereo not drawn)
Inquiry: Between A and B , which one shows the smaller pIC50 number? Which one? Tell me its label.
Reply text: B
